- TEST_PROTOCOL: toxicity: cell viability by [3H]-thymidine uptake in PHA-stimulated human PBL
- Type: cell-based
- EXPERIMENTAL_SETUP: human, pha-stimulated pbl, 25 ug/ml; 3 days; mean of quadruplicate; read-out: Thymidine uptake (% of control with no drug)
OBSERVATION_TYPE: viability at 72 h (%)
Give bare numbers, in %.

QUERY: Which viability at 72 h is listed for Cc1cn([C@H]2C[C@H](N=[N+]=[N-])[C@@H](CO)O2)c(=O)[nH]c1=O ?
RESULT: 5

###

- TEST_PROTOCOL: toxicity: cell viability by [3H]-thymidine uptake in PHA-stimulated human PBL
- Format: cell-based
- EXPERIMENTAL_SETUP: human, pha-stimulated pbl, 100 ug/ml; 3 days; mean of quadruplicate; read-out: Thymidine uptake (% of control with no drug)
- Protocol: Normal human peripheral blood lymphocytes (PBL) were fractionated on Ficoll-Hypaque (Pharmacia Chemicals, Uppsala, Sweden) from venous blood collected in preservative-free heparin. […] The relative toxicities of the materials tested in example 4 were evaluated by reference to cell viability in the presence of the drugs as measured by the relative uptake of [^3 H]- thymidine. […] Following a 5 hour probe with [^3 H]- thymidine (0.5 uCi/well), the cells were harvested and counted. […]
OBSERVATION_TYPE: viability at 72 h (%)
Give bare numbers, in %.

QUERY: Would you mind telling me what viability at 72 h value was observed for Cc1cn([C@H]2C[C@H](N=[N+]=[N-])[C@@H](CO)O2)c(=O)[nH]c1=O ?
RESULT: 1

###

- TEST_PROTOCOL: toxicity: cell viability by [3H]-thymidine uptake in PHA-stimulated human PBL
- Format: cell-based
- EXPERIMENTAL_SETUP: human, pha-stimulated pbl, 5 ug/ml; 3 days; mean of quadruplicate; read-out: Thymidine uptake (% of control with no drug)
OBSERVATION_TYPE: viability at 72 h (%)
Give bare numbers, in %.

QUERY: Consider the molecule shown here: Cc1cn([C@H]2C[C@H](N=[N+]=[N-])[C@@H](CO)O2)c(=O)[nH]c1=O What is its recorded viability at 72 h?
RESULT: 20

###

- TEST_PROTOCOL: toxicity: cell viability by [3H]-thymidine uptake in PHA-stimulated human PBL
- Type: cell-based
- EXPERIMENTAL_SETUP: human, pha-stimulated pbl, 200 ug/ml; 3 days; mean of quadruplicate; read-out: Thymidine uptake (% of control with no drug)
- Description: Normal human peripheral blood lymphocytes (PBL) were fractionated on Ficoll-Hypaque (Pharmacia Chemicals, Uppsala, Sweden) from venous blood collected in preservative-free heparin. […] The relative toxicities of the materials tested in example 4 were evaluated by reference to cell viability in the presence of the drugs as measured by the relative uptake of [^3 H]- thymidine. […] Following a 5 hour probe with [^3 H]- thymidine (0.5 uCi/well), the cells were harvested and counted. […]
OBSERVATION_TYPE: viability at 72 h (%)
Give bare numbers, in %.

QUERY: Value lookup for viability at 72 h; key = Cc1cn([C@H]2C[C@H](N=[N+]=[N-])[C@@H](CO)O2)c(=O)[nH]c1=O
RESULT: 0

###

- TEST_PROTOCOL: toxicity: cell viability by [3H]-thymidine uptake in PHA-stimulated human PBL
- Format: cell-based
- EXPERIMENTAL_SETUP: human, pha-stimulated pbl, 71 ug/ml; 3 days; mean of quadruplicate; read-out: Thymidine uptake (% of control with no drug)
OBSERVATION_TYPE: viability at 72 h (%)
Give bare numbers, in %.

QUERY: Given Cc1cn([C@H]2C[C@H](N=[N+]=[N-])[C@@H](CO)O2)c(=O)[nH]c1=O , state its recorded viability at 72 h.
RESULT: 1

###

- TEST_PROTOCOL: toxicity: cell viability by [3H]-thymidine uptake in PHA-stimulated human PBL
- Format: cell-based
- EXPERIMENTAL_SETUP: human, pha-stimulated pbl, 50 ug/ml; 3 days; mean of quadruplicate; read-out: Thymidine uptake (% of control with no drug)
OBSERVATION_TYPE: viability at 72 h (%)
Answers are plain numbers, in %.

QUERY: Would you mind telling me what viability at 72 h value was observed for Cc1cn([C@H]2C[C@H](N=[N+]=[N-])[C@@H](CO)O2)c(=O)[nH]c1=O ?
RESULT: 2

From: patent US5439892A
